The reported measurements were obtained from patent US20230094463A1.

Target: T1, human Gal3 (Homo sapiens, UniProt P17931)
T1 construct: His; purchased AcroBio GA3-H5129
T1 sequence (P17931 whole entry): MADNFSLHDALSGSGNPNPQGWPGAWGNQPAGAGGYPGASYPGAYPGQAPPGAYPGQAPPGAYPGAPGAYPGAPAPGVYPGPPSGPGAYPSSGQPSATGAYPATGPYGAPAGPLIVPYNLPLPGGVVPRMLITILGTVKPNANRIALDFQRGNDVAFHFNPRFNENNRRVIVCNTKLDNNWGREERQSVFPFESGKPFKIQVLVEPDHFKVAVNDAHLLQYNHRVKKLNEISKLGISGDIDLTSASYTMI
Assay: Antibody binning assays (competition for binding to Gal3)
Conditions: binning per Examples 3 and 18
Description: To determine whether Gal3-binding antibodies with Gal3-INSR blocking activity bind to the same or overlapping regions of the Gal3 molecule, antibody binning assays were performed to assess the ability of antibodies to simultaneously bind Gal3. […]
METRIC NAME: epitope bin (competitive binding to Gal3)

23H9.2E4: anti-Gal3 monoclonal antibody (antibody, V domains shown) VH: QIQLVQSGPELKKPGETVKISCKASGYTFTTYAMSWVKQAPGKGLKWMGWINTYSGVPTYADDLKGRFAFSLETSASTAYLQINNLKNEDTATYFCARGPYAMDYWGQGTSVTVSS VL: DIQMTQTTSSLSASLGDRVTISCSASQGINNYLNWYQQKPDGTVKLLIYYASSLHSGVPSRFSGSGSGTDYSLTISNLEPEDIATYYCQQYSQVPYTFGSGTKLEIK ... bin 3
